Origin of the recorded values: PubChem BioAssay AID1159580

# Protocol Summary: chemical genetic growth profiling, strain panel (AID 1159580);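 also: tested at 20 µM; growth read once vehicle control cultures reached saturation at 30 °C; 1 = growth at the plate median or of vehicle wells; lower values mean less growth of the strain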
# Conditions Used: S. cerevisiae deletion strains, growth OD, locus YOR329C, strain SCD5, active compounds read low
The whole screen tested about 5,500 compounds, of which about 2,000 (36%) were called active. Inconclusive results (about 18%) are left out. This is one part of the list.
Listed here are compounds together with their documented normalized growth.
Answer using only a numeral; do not append any unit.

Sample records with normalized growth:
                                   compound  assay_value
0  O=[N+]([O-])c1ccc(ON=C2CCCCC2)c([N+](=O)[O-])c1        0.994
1  C/C(Cc1nnn(-c2cc(C)on2)n1)=N/OC(=O)Nc1ccc(Cl)cc1        0.982
2    O=C(ON=C1CCCCC1)c1ccc([N+](=O)[O-])cc1        0.949
3  Cc1cc(C(=O)NNS(=O)(=O)c2ccc(F)c(Cl)c2)nn1-c1c(Cl)cc(Cl)cc1Cl        0.985
4  CCOC(=O)C1C(c2c(F)cccc2Cl)C(C(=O)OCC)C(O)(C(F)(F)F)NC1(O)C(F)(F)F (stereo unspecified)        0.986

Exam item: Fill in the blank: the reported normalized growth of O=C(c1csc(-c2ccc(Cl)cc2)c1)N1CCCCC1 is ____.
Marked response: 0.954

Exam item: Request: Cc1cccc(NC(=S)N/N=C\c2ccc(F)cc2)c1
Marked response: 0.959
